Values from patent US6242437A

MIC, E. cloacae G-0008: measured values
Answer in µg/mL, number only, no unit symbol.

Some compounds with recorded MIC:
compound="CO/N=C(\\C(=O)N[C@@H]1C(=O)N2C(C(=O)[O-])=C(C[n+]3cccc4c3CCC4)CS[C@H]12)c1csc(N)n1 [Control 2, Cefpirome, reference compound]" system_under_test="E. cloacae G-0008" val=0.05
compound="CO/N=C(\\C(=O)N[C@@H]1C(=O)N2C(C(=O)[O-])=C(C[n+]3ccn4ncccc43)CS[C@H]12)c1nsc(N)n1 [Control 1, Cefozopran, reference compound]" system_under_test="E. cloacae G-0008" val=0.1
compound=CO/N=C(\C(=O)N[C@@H]1C(=O)N2C(C(=O)[O-])=C(C[n+]3cc4sccn4c3CNS(N)(=O)=O)CS[C@H]12)c1nsc(N)n1 system_under_test="E. cloacae G-0008" val=0.1

Now consider a different compound.
Reported E. cloacae G-0008 MIC for item `Nc1nc(/C(=N/OCF)C(=O)N[C@@H]2C(=O)N3C(C(=O)[O-])=C(C[n+]4cc5sccn5c4CNS(N)(=O)=O)CS[C@H]23)ns1` was 0.05
